Source listed as the supplement of paper PMC10567573.

B1: MATN2 (parent)
chain: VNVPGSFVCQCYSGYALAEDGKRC

Variants of: B1
Assay: protein stability index of a GFP-peptide fusion (GPS, HEK-293T) (PSI 1-6); higher = more stable;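 also: lentivirally expressed fusions sorted by FACS into six bins by GFP to DsRed ratio, PSI derived from sequencing read proportions per bin multiplied by bin number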
Recorded Conditions: c terminus: a fixed tail appended
Would you mind telling me the reported protein stability index of each entry?

For reference, reported protein stability index for `S13K` stands at 1.58

For reference, reported protein stability index for `G14F` stands at 2.6

For reference, reported protein stability index for `F7D` stands at 2.56

For reference, reported protein stability index for `S6E` stands at 2.67

For reference, reported protein stability index for `Y15A` stands at 2.56

For reference, reported protein stability index for `G5A` stands at 1.67

For reference, reported protein stability index for `Y12F` stands at 2.54

For reference, reported protein stability index for `C24H` stands at 2.9

For reference, reported protein stability index for `V1S` stands at 3.31

For reference, reported protein stability index for `D20G` stands at 1.48

For reference, reported protein stability index for `G21Q` stands at 2.75

For reference, reported protein stability index for `G21A` stands at 2

For reference, reported protein stability index for `V3C` stands at 1.08

For reference, reported protein stability index for `C11A` stands at 3.12

For reference, reported protein stability index for `A16I` stands at 2.11

For reference, reported protein stability index for `A18P` stands at 1.65

For reference, reported protein stability index for `V1K` stands at 1.92

For reference, reported protein stability index for `Q10W` stands at 2.32

For reference, reported protein stability index for `N2K` stands at 1.38

For reference, reported protein stability index for `V8C` stands at 1.27

For reference, reported protein stability index for `V3H` stands at 1.81

For reference, reported protein stability index for `Y12Q` stands at 1.76

For reference, reported protein stability index for `S6T` stands at 2.12
